Recorded values, source patent EP2149554A1.

- test-target: EP2-Subtyp des humanen PGE2-Rezeptors (Homo sapiens)
- Sequence (P43116 whole entry): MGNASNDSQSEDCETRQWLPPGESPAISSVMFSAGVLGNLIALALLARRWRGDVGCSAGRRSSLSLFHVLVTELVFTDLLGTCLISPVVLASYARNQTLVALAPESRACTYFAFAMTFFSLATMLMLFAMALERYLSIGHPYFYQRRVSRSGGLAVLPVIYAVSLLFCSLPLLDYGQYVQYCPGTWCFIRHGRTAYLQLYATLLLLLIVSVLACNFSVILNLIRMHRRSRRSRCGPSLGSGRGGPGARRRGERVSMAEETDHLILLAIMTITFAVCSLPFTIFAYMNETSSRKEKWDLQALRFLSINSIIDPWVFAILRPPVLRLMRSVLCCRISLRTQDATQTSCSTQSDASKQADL
- assay-overview: cAMP antagonism test (HTRF cAMP detection, in presence of PGE2)
- run-parameters: cAMP Antagonismustest; PGE2 as agonist; read-out: Antagonismus [IC50
endpoint: IC50 (nM)

Cc1[nH]c2c(F)ccc(C)c2c1CCNC(=O)c1cc2ccc(C(=O)NCC(C)(C)CO)cc2[nH]1 | 122

1. Cc1[nH]c2c(F)ccc(C)c2c1CCNC(=O)c1cc2cc(C(=O)NCCC(N)=O)ccc2[nH]1
2. Cc1[nH]c2c(F)ccc(C)c2c1CCNC(=O)c1cc2ccc(C(=O)NCCC(N)=O)cc2[nH]1
input: // pick min by IC50: 1 , 2 Identify your selection by its label.
output: 2
